experiment: Selectivity index, ratio of dark toxicity against human MDA-MB-231 cells at 5 uM to phototoxicity against human MDA-MB-231 cells at 5 uM; type: cell-based; conditions: read-out: Selectivity Index
test_readout: selectivity ratio at 5 µM
Enter a number only.

INPUT: Bench note: what selectivity ratio at 5 µM did COC(C)C1=C(C)c2cc3[nH]c(cc4nc(cc5[nH]c(cc1n2)c(C)c5CCC(=O)O)C(CCC(=O)O)=C4C)c(C)c3C(C)O (stereo unspecified) show?
OUTPUT: 18.8

###

Below is a list of entries, each paired with its recorded selectivity ratio at 0.5 µM value.
assay: Selectivity index, ratio of dark toxicity against mouse 4T1 cells at 0.5 uM to phototoxicity against mouse 4T1 cells at 0.5 uM; format: cell-based; conditions: read-out: Selectivity Index
I'd appreciate a reply containing only the number, no unit.

INPUT: If you can, please state the reported selectivity ratio at 0.5 µM value of C=Cc1c(C)c2cc3nc(cc4[nH]c(cc5nc(cc1[nH]2)C(C)=C5C(C)OCCCCCC)c(C)c4CCC(=O)[O-])C(CCC(=O)[O-])=C3C.[Na+].[Na+] (configuration not stated) .
OUTPUT: 68.5

INPUT: Would you mind doing C=CC1=C(C)c2cc3[nH]c(cc4nc(cc5[nH]c(cc1n2)c(C)c5CCC(=O)[O-])C(CCC(=O)[O-])=C4C)c(C)c3C(C)OCCCCCC.[Na+].[Na+] (configuration not stated) as well?
OUTPUT: 21.7

###

assay: Induction of apoptosis in human MDA-MB-231 cells assessed as viable cells after 24 hrs by Annexin-V FITC/propidium iodide staining based flow cytometric analysis (reference value: 93.27%); assay type: cell-based; conditions: read-out: Activity
test_readout: viability at 24 h (%)
# output: bare number, implied unit %

Below are worked cases with known answers.
compound	reading_unit	readout_number
COC(C)C1=C(C)c2cc3[nH]c(cc4nc(cc5[nH]c(cc1n2)c(C)c5CCC(=O)O)C(CCC(=O)O)=C4C)c(C)c3C(C)O (stereo not drawn)	%	92.2
C=Cc1c(C)c2cc3nc(cc4[nH]c(cc5nc(cc1[nH]2)C(C)=C5C(C)OCCCCCC)c(C)c4CCC(=O)[O-])C(CCC(=O)[O-])=C3C.[Na+].[Na+] (stereo not drawn)	%	93.4

INPUT: Give its viability at 24 h value. Item: C=CC1=C(C)c2cc3[nH]c(cc4nc(cc5[nH]c(cc1n2)c(C)c5CCC(=O)[O-])C(CCC(=O)[O-])=C4C)c(C)c3C(C)OCCCCCC.[Na+].[Na+] (stereo not drawn)
OUTPUT: 92.8

###

assay: Selectivity index, ratio of dark toxicity against human MCF7 at 0.5 uM cells to phototoxicity against human MCF7 cells at 0.5 uM; format: cell-based; details: read-out: Selectivity Index
selectivity ratio at 0.5 µM values for the compounds below.

compound	result
C=Cc1c(C)c2cc3nc(cc4[nH]c(cc5nc(cc1[nH]2)C(C)=C5C(C)OCCCCCC)c(C)c4CCC(=O)[O-])C(CCC(=O)[O-])=C3C.[Na+].[Na+] (configuration not stated)	90.8

INPUT: Need selectivity ratio at 0.5 µM of C=CC1=C(C)c2cc3[nH]c(cc4nc(cc5[nH]c(cc1n2)c(C)c5CCC(=O)[O-])C(CCC(=O)[O-])=C4C)c(C)c3C(C)OCCCCCC.[Na+].[Na+] (configuration not stated) , thanks.
OUTPUT: 24.2
